Test system: mice
Test: Phenylbenzoquinone test (analgesic activity)
Format: in vivo
Conditions: one hour before phenylbenzoquinone injection, 5 minutes observation
Procedure: 2. Phenylbenzoquinone test The intraperitoneal injection of phenylbenzoquinone causes twisting and stretching movements in mice. Analgesics prevent or reduce this syndrome, which can be considered as the exteriorization of diffuse abdominal pain. A 0.02% solution of phenylbenzoquinone in water is administered in a volume of 1 ml/100 g. […] The stretching and twisting movements are counted for each mouse over an observation period of 5 minutes.
experimental endpoint: Phenylbenzoquinone test % inhibition at 30 mg/kg p.o. (%)
Numbers only, in %.

Would you kindly share the measured Phenylbenzoquinone test % inhibition at 30 mg/kg p.o. for `Cc1ccc(C)c(COc2cccn3c(CCNc4ncnc5c4ncn5[C@@H]4O[C@H](C(=O)NC5CC5)[C@@H](O)[C@H]4O)c(C)nc23)c1` ? 63

Hi team, please reply with Phenylbenzoquinone test % inhibition at 30 mg/kg p.o. for each item in this list.
1. O=C(NC1CC1)[C@H]1O[C@@H](n2cnc3c(NCCc4cnc5c(OCc6ccccc6)cccn45)ncnc32)[C@H](O)[C@@H]1O
2. COCCOc1cccn2c(CCNc3ncnc4c3ncn4[C@@H]3O[C@H](C(=O)NC4CC4)[C@@H](O)[C@H]3O)cnc12

1: 39; 2: 25

Look at each molecule and report its Phenylbenzoquinone test % inhibition at 30 mg/kg p.o..
1. Cc1ccc(C)c(COc2cccn3c(CCNc4ncnc5c4ncn5[C@@H]4O[C@H](C(=O)NC5CC5)[C@@H](O)[C@H]4O)cnc23)c1
2. O=C(NC1CC1)[C@H]1O[C@@H](n2cnc3c(NCCc4cnc5c(OC6CCCC6)cccn45)ncnc32)[C@H](O)[C@@H]1O

1. 57
2. 57
